Let's look at some variants and their measured aptazyme ON/OFF ratio.
B1: Pistol ribozyme (parent)
chain: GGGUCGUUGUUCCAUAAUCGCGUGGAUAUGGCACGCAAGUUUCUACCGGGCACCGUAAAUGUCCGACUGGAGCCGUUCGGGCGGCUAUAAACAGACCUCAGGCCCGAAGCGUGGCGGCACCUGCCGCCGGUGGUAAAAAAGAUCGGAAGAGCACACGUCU

variants of: B1; experiment: aptazyme ON/OFF ratio, guanine; higher = stronger switching; co-transcriptional cleavage with and without guanine

| Variant designation | aptazyme ON/OFF ratio |
| --- | --- |
| U8A G9A U10C C12U C13A | 1.17 |
| U7C U8C G9U U10C U11C C12U C13G | 1.1 |
| U7G U8A G9C U10A U11G C12G C13A | 1.05 |
| U8G G9A U10C C12G C13A | 1.21 |
| U7A U10G U11G C12A | 1.29 |
| U7A U8A G9C C12A | 1.22 |
| U7A U8C G9U U11A C12A C13A | 1.42 |
| G9U U11A C12A C13A | 1.59 |
| U7A U8G G9C U10G C12G | 1.15 |
| U7A U8A G9U U10G C12G C13U | 1.23 |
| U7C U8A G9C U10A U11G C13A | 1.12 |
| U7A U8C G9U U10C U11G | 1.22 |
| U7A G9A U10A U11C C12G C13A | 1.08 |
| U7G U8G G9U C12A | 1.56 |
| U7G U8A G9C U10C U11G C13A | 1.04 |
| U7G U8A G9U U10C U11C C12G C13A | 1.09 |
| U8A G9A U10C U11A C12A C13U | 1.17 |
| U7A U8A G9C U10C U11C C12G C13A | 1.02 |
| U7C U10G U11C C12U | 1.16 |
| U8A U10C U11A C12U C13A | 1.16 |
| U7G U8G G9A U10G U11C C13A | 1.15 |
| U7C U8C C12U C13U | 1.29 |

The reported measurements were obtained from the RNAGym collection of RNA variant scans (doi:10.1021/acssynbio.7b00057).
